Test system: 628569-122-R-J1-PDC complex spheroid viability;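 note: spheroids exposed to agents for seven days before readout; 100% = DMSO vehicle control viability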
Assay: Anticancer human tumor 628569-122-R-J1-PDC patient-derived head and neck squamous carcinoma cell line growth inhibition [CLK]; active = viability on the fitted dose curve at most 10% of control; inactive = the rest
Settings: second compound 3.16 µM; first compound 0.0316 µM
Possible outcomes: yes (1) = active, no (0) = inactive

{"compound": "CCN1CCN(Cc2ccc(Nc3ncc(F)c(-c4cc(F)c5nc(C)n(C(C)C)c5c4)n3)nc2)CC1 + CN1CCN(c2cc(C(=O)Nc3cc4cc(-c5cnn(C)c5)ccc4cn3)ccn2)CC1", "group.label": "yes (1)"}
{"compound": "COC1C=CCC(C)C(C)S(=O)(=O)NC(=O)c2ccc3c(c2)N(CC2CCC21)CC1(CCCc2cc(Cl)ccc21)CO3 (stereo not drawn) + CNC(=O)c1ccc(Nc2nc(OC3CCCC3)c3c(-c4ccc5nc(C)oc5c4)c[nH]c3n2)c(OC)c1", "group.label": "no (0)"}
{"compound": "C=C(F)C(=O)N1CCN(c2nc(OCC3CCCN3C)nc3c2CCN(c2cccc4cccc(Cl)c24)C3)CC1CC#N (stereo not drawn) + CN1CCN(c2cc(C(=O)Nc3cc4cc(-c5cnn(C)c5)ccc4cn3)ccn2)CC1", "group.label": "yes (1)"}
